All values here come from ChEMBL document CHEMBL1134602.

System: SK-OV-3
assay-details: Growth inhibitory activity of compound for 24-h exposure in SKOV-3 cell line
Assay type: functional, cell-based
condition-info: Homo sapiens, SK-OV-3, 24 h
attribute-measured: pIC50
// field semantics: pIC50 = negative decimal log of concentration (mol/L)

Ask: Consider the compound shown here: CN(C)CCCOc1ccc(-c2nc3cc(-c4ccc5nc(-c6ccc(OCCCN(C)C)cc6)[nH]c5c4)ccc3[nH]2)cc1 What is its recorded pIC50?
Reply: 6.94
